Test system: M. mycetomatis MM55
Assay: IC50 determination, 2-fold dilution series 16 to 0.03125 μM
Format: cell-based, Madurella mycetomatis
Conditions: Madurella mycetomatis, MM55, mean of replicates; read-out: IC90 mean
Measured IC90 of individual entries

Worked examples, 2 molecules total:
Molecule	IC90
Cc1ccc(NC(=O)c2cc(Cl)ccc2O)cc1	> 25 µM
N#C/C(=C1/SC[C@@H](c2ccc(Cl)cc2Cl)S1)n1ccnc1 [MMV1782224, Luliconazole, reference compound]	< 0.098 µM

Suppose we examine the molecule Oc1cccc(C(Nc2nccs2)c2ccc3cccnc3c2O)c1 (stereo not drawn) ; what IC90 value has been reported?
> 25 µM

----------
System: M. mycetomatis genome strain MM55
Test: CLSI M38-A2 based in vitro susceptibility screening (XTT or resazurin), growth at fixed concentration
Type: cell-based, Madurella mycetomatis
Conditions: Madurella mycetomatis, 25 uM, replicate C, M. mycetomatis MM55; read-out: Percentage survival at 25um, 25 uM C
Quantity: activity at 25 µM (%)
Provide the reading as a plain figure in %.

Look over these answered cases.
Compound	activity at 25 µM / %
Nc1cc(N)c2nc(-c3ccccc3)c(Nc3ccc(F)cc3)nc2c1	89.3
Clc1ccc(COC(Cn2ccnc2)c2ccc(Cl)cc2Cl)c(Cl)c1 (stereo not shown)	3.48
Cc1nc(-c2ccc(C3N(C)c4ccc(F)cc4C(=O)N3c3ccccc3)s2)cs1 (stereo not shown)	59.4

Read the next record carefully.
Fill in the recorded activity at 25 µM for this compound, with M. mycetomatis genome strain MM55 as test system: N#C/C(=C1/SC[C@@H](c2ccc(Cl)cc2Cl)S1)n1ccnc1 [MMV1782224, Luliconazole, reference compound]
4.51

----------
Test system: M. mycetomatis genome strain MM55
Assay: CLSI M38-A2 based in vitro susceptibility screening (XTT or resazurin), growth at fixed concentration
Format: cell-based, Madurella mycetomatis
Conditions: Madurella mycetomatis, 25 uM, replicate A; read-out: Percentage survival at 25um, 25 um A
Quantity: activity at 25 µM (%)
Numeric answer only, unit % assumed.

Molecule	Result number
CCCCCCCCC(CP(=O)(O)C(C)N)C(=O)O (stereo not drawn)	90.3

Shift focus to the following entry.
Quick one: activity at 25 µM for Cc1ccc(S(=O)(=O)Nc2cccc3cccnc23)cc1 ?
5.12

----------
Test system: M. mycetomatis genome strain MM55
Assay: CLSI M38-A2 based in vitro susceptibility screening (XTT or resazurin), growth at fixed concentration
Assay type: cell-based, Madurella mycetomatis
Conditions: Madurella mycetomatis, 25 uM, replicate A, M. mycetomatis MM55; read-out: Percentage survival at 25um, 25 um A
Label rule, in plain words: activity at 25 µM of 40% and up is yes (1), under 40% is no (0).

Molecule	Target entity	Class label
Fc1ccc(-c2nc(-c3c[nH]c4ccc(Br)cc34)[nH]c2-c2ccc(F)cc2)cc1 [MMV1593537]	M. mycetomatis genome strain MM55	no (0)

Does activity at 25 µM meet or surpass 40% for N#C/C(=C1/SC[C@@H](c2ccc(Cl)cc2Cl)S1)n1ccnc1 [MMV1782224, Luliconazole, reference compound] ?
no (0)

Reported activity at 25 µM at or above 40%? COc1ccc2cc3[n+](cc2c1OCCN(CCn1cncn1)Cc1ccc(F)cc1F)CCc1cc2c(cc1-3)OCO2 [MMV1593540]
yes (1)

Has O=C(Nc1ccccc1C(=O)O)c1cccc(Oc2ccccc2)c1 [MMV1579784] a recorded activity at 25 µM greater than or equal to 40%?
yes (1)

# check: activity at 25 µM of CCNC(=O)Nc1cc2c(-c3ccnc(C)c3)ccc(CNC(=O)OC)c2cn1 [MMV1634390] is greater than or equal to 40%
yes (1)

Please check the record O=[N+]([O-])c1ccc2c(CCc3c[nH]c4ccccc34)c[nH]c2c1 [MMV1593539] and state if its activity at 25 µM is at or above 40%.
no (0)

----------
Test system: M. mycetomatis genome strain MM55
Test: CLSI M38-A2 based in vitro susceptibility screening (XTT or resazurin), growth at fixed concentration
Type: cell-based, Madurella mycetomatis
Details: Madurella mycetomatis, 100 uM, replicate 1; read-out: Percentage survival at 100um, 100 uM A
Quantity: activity at 100 µM (%)
Respond with the bare value in %.

Completed entries (count: 6):
Compound	Target entity	Quantity	Measurement unit	Result number
CCOC(=O)N1CCN(c2ccc(Cl)cc2)CC1 [MMV1578898]	M. mycetomatis genome strain MM55	activity at 100 µM	%	38.1
O=C(Nc1ccc(-c2ccccc2)cc1)C1=C(O)C(Cc2ccccc2)OC1=O (stereo not shown) [MMV1593531]	M. mycetomatis genome strain MM55	activity at 100 µM	%	74.2
COc1ccc(SC(=O)N[C@H](CCC(=O)O)C(=O)O)cc1 [MMV1580846]	M. mycetomatis genome strain MM55	activity at 100 µM	%	-2.83
NC1(C(=O)O)CCP(=O)(O)CC1 (stereo not shown) [MMV1593538]	M. mycetomatis genome strain MM55	activity at 100 µM	%	72.6
C=CCc1cc(Cc2cnc(N)nc2N)cc(OC)c1O [MMV1580849]	M. mycetomatis genome strain MM55	activity at 100 µM	%	101
O=C(Nc1ncc(Cc2cccc3ccccc23)s1)C1CCCCC1 [MMV1593532]	M. mycetomatis genome strain MM55	activity at 100 µM	%	107

Query compound follows.
Data request, read-out activity at 100 µM, for CC(C)n1cnc2c(NCc3ccccc3)nc(NCc3ccccc3)nc21 [MMV1579780]
60.4

----------
Reported values of MIC for individual entries
Tested on: ten different M. mycetomatis isolates
Experiment: MIC / MIC50 determination (XTT) in ten M. mycetomatis isolates
Format: cell-based, Madurella mycetomatis
Details: Madurella mycetomatis; isolate i11; read-out: MIC i11
Field format: number, assumed µM, no unit text.

Consider the reported MIC for these compounds:
Compound	Result number
O=C(/C(=C/c1ccc(Cl)cc1Cl)n1ccnc1)c1ccc(Cl)cc1	4
COC(=O)Nc1nc2c(C)cccc2[nH]1	4

// moving on: another record for MIC
Any idea what MIC came out for COc1cc(C)c2c(Oc3cccc(C(F)(F)F)c3)c(OC)cc(NC(C)CCCN)c2n1 (stereo not drawn) [MMV000043, Tafenoquine, reference compound] on ten different M. mycetomatis isolates?
4

----------
Tested on: M. mycetomatis genome strain MM55
Assay: CLSI M38-A2 based in vitro susceptibility screening (XTT or resazurin), growth at fixed concentration
Assay type: cell-based, Madurella mycetomatis
Details: Madurella mycetomatis, 25 uM, replicate A, MM55; read-out: Percentage survival at 25um, 25 um A
Catalogue of activity at 25 µM values
Please give a number only; it is taken to be in %.

These solved cases illustrate the format of a correct answer.
Compound	Measurement unit	activity at 25 µM
CNC(=O)C1O[C@@H](n2cnc3c(NCc4cccc(I)c4)nc(Cl)nc32)[C@H](O)[C@@H]1O (stereo partly shown)	%	85.8
Nc1nc(-c2ccccc2)nc2[nH]nc(Nc3ccc(C(F)(F)F)cc3)c12	%	147
Cn1c2ccccc2c(=O)c2c(O)cccc21	%	63.1
CN(C)CC(=O)Nc1ccc2[nH]c(=O)c3ccccc3c2c1	%	106
COc1ccc(OCc2ccc(COc3c(Cl)cccc3Cl)cc2)c(Cl)c1	%	92.6

Any idea what activity at 25 µM came out for COc1cc(C(C(=O)NC2CCCCC2)N(C(=O)Cc2c[nH]c3ccccc23)c2ccc(C(C)C)cc2)cc(OC)c1OC (stereo not shown) on M. mycetomatis genome strain MM55?
107

Observed activity at 25 µM on M. mycetomatis genome strain MM55 for NC(=S)N/N=C/c1ncccc1N , please.
65.1

Short answer please: activity at 25 µM, M. mycetomatis genome strain MM55, entry COc1ccc(C[C@@H](C)[C@@H](C)Cc2ccc(OC)c(OC)c2)cc1OC
72.1

Any idea what activity at 25 µM came out for Nc1nc2c(Cc3cccnc3)c[nH]c2c(=O)[nH]1 on M. mycetomatis genome strain MM55?
97.7

----------
Test system: M. mycetomatis genome strain MM55
Test: CLSI M38-A2 based in vitro susceptibility screening (XTT or resazurin), growth at fixed concentration
Format: cell-based, Madurella mycetomatis
Settings: Madurella mycetomatis, 25 uM, replicate C, MM55; read-out: Percentage survival at 25um, 25 uM C
Below is a list of entries, each paired with its recorded activity at 25 µM value.
Give just the number in %; leave the unit off.

Compound	Measurement unit	activity at 25 µM
N[C@H]1CCC[C@H]1C(=O)O	%	79.4
CCn1cc(C(=O)O)c(=O)c2cc(F)c(N3CCNC(C)C3)c(F)c21 (stereo not drawn)	%	82.3
CN1C(=O)C(c2ccccc2)C(=O)N(c2ccccc2)c2cc(C(F)(F)F)ccc21 (stereo not drawn)	%	80.3

Record lookup: for M. mycetomatis genome strain MM55, what activity at 25 µM belongs to O=C(O)c1cc(-c2ccc(Br)cc2)nc2ccc(Cl)cc12 ?
58.9

What is its activity at 25 µM for M. mycetomatis genome strain MM55? Entry: CCCCN1C[C@H](O)[C@@H](O)[C@H](O)[C@H]1CO
79.8

Reported activity at 25 µM for M. mycetomatis genome strain MM55, given CC(C)Oc1ccc(-n2cnc3cc(/C=C\c4ccc(C(C)(C)O)cc4)ccc32)cc1 ?
59.5
